- Tested on: MelJuSo cells
- RUN DESCRIPTION: Cell viability (CellTiter-Glo ATP content) in MelJuSo cells
- Assay type: cell-based
- TEST SETTINGS: Homo sapiens, MEL-JUSO, 72 hours treatment, cell survival by CellTiter-Glo, 2% fetal bovine serum
Give IC50 for every item shown.

IC50 for CC(C)(CO)CCCNC(=O)C1(C)C(c2ccco2)C(c2ccc(F)cc2)=NN1c1ccc(F)cc1F (stereo not shown) ?
< 0.25 µM

IC50 for CCCCC1C(c2ccc(Cl)cc2F)=NN(c2ccccc2)C1(C)C(=O)NCCCC(C)(C)CO (stereo not shown) ?
> 2 µM

IC50 for COCCNC(=O)C1(C)C(c2ccsc2)C(c2ccc(F)cc2F)=NN1c1ccc(F)cc1F (stereo not shown) ?
< 0.25 µM

IC50 for CCCCC1C(c2ccc(F)cc2)=NN(c2ccccc2)C1(C)C(=O)NCCCC(C)(C)CO (stereo not shown) ?
0.25 to 0.5 µM
